Target: BTK (Homo sapiens (Human), UniProt Q06187)
Sequence (Q06187 whole entry, species assumed): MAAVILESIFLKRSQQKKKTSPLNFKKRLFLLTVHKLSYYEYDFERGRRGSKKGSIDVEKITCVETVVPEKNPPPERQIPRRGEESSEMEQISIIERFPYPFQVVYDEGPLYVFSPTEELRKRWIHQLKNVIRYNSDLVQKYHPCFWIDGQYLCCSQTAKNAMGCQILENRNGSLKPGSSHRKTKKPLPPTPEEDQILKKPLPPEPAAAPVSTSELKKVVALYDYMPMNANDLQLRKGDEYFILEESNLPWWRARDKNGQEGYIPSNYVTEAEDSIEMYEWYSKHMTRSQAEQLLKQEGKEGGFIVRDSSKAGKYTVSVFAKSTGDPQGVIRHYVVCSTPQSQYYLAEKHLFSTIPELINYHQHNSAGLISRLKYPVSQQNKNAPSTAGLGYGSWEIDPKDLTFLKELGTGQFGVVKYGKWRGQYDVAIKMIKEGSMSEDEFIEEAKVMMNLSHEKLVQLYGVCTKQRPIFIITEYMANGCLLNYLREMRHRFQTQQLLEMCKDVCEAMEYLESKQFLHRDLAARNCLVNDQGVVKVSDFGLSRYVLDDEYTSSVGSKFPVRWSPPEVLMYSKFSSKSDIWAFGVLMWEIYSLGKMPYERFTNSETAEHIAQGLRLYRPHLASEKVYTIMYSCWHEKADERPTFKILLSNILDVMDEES
Experiment: Btk kinase assay (HTRF)
Assay type: biochemical
Conditions: [ATP]=80 μM, BTK=3.4 nM; read-out: BTK Inhibition
pIC50: −log10 of the molar value.
quantity name: pIC50

Take a look at these entries with their results.
compound	target entity	pIC50
C=CC(=O)N1CC[C@@H](n2c(=O)n(-c3ccc(OCc4ccc(C(F)(F)F)cc4)cc3)c3cnccc32)C1	BTK (Homo sapiens (Human), UniProt Q06187)	6.00 to 7.00
C=C(C)C(=O)N1CC[C@@H](n2c(=O)n(-c3cccc(Oc4ccccc4)c3)c3cnccc32)C1	BTK (Homo sapiens (Human), UniProt Q06187)	5.00 to 6.00
C=CC(=O)N1CCC[C@@H](n2c(=O)n(-c3ccc(Oc4cccc(F)c4OC)cc3)c3cnccc32)C1	BTK (Homo sapiens (Human), UniProt Q06187)	6.00 to 7.00

pIC50 in this record for `C=CC(=O)N1CC[C@@H](n2c(=O)n(-c3ccc(Oc4ccccc4)cc3)c3c(N)cccc32)C1` : 6.00 to 7.00

pIC50 in this record for C=CC(=O)N1CCC(n2c(=O)n(-c3ccc(Oc4ccncc4)cc3)c3cnccc32)C1 (stereo not shown) : 5.00 to 6.00

pIC50 in this record for `C=CC(=O)N1CC[C@@H](n2c(=O)n(-c3ccc(Oc4cccc(F)c4Cl)cc3)c3cnccc32)C1` : 7.00 to 8.00

pIC50 in this record for NC(=O)C(=O)N1CCCC(n2c(=O)n(-c3ccc(Oc4ccccc4)cc3)c3cnccc32)C1 (stereo not shown) : ≤ 5.00
